Data provenance: patent US10105357B2

System: HepG2 (Hepatocellular Carcinoma)
Test: Cell viability analysis, hepatic cancer HepG2
Assay type: cell-based, human
Conditions: Homo sapiens, HepG2, 72 h, HepG2; repeated experiment; read-out: The results of antibiotic drug inhibiting cancer cell lines (cell viability analysis), HepG2
Counter-ions that a name gives are not always drawn.
QUANTITY NAME: viability at 10 µM (%)
I only need the number, in %, no unit after it.

# return recorded viability at 10 µM for entry CC[C@H](C)C(=O)O[C@H]1CCC=C2C=C[C@H](C)[C@H](CC[C@@H]3C[C@@H](O)CC(=O)O3)[C@H]21
98.7

# return recorded viability at 10 µM for entry CC(C)c1nc(N(C)S(C)(=O)=O)nc(-c2ccc(F)cc2)c1/C=C/[C@@H](O)C[C@@H](O)CC(=O)O
108

# return recorded viability at 10 µM for entry CC(C)(C)CC(C)(C)c1ccc(O)c(Cc2ccc(Cl)cc2Cl)c1
114

# return recorded viability at 10 µM for entry COC(=O)Nc1nc2ccc([S+]([O-])c3ccccc3)cc2[nH]1 (stereo not shown)
99.4

# return recorded viability at 10 µM for entry CCCCCCCCCCCCCCCC[N+](C)(C)CCN(Cc1ccc(OC)cc1)c1ncccn1 [Thonzonium Bromide]
47.7

# return recorded viability at 10 µM for entry NC(=O)N/N=C/c1ccc([N+](=O)[O-])o1
95.4

# return recorded viability at 10 µM for entry CC(C)CN(C[C@@H](O)[C@H](Cc1ccccc1)NC(=O)O[C@H]1CCOC1)S(=O)(=O)c1ccc(N)cc1
94.5

# return recorded viability at 10 µM for entry Cc1ccc2c(Cl)cc(Cl)c(O)c2n1
82

# return recorded viability at 10 µM for entry COc1c(C)c2c(c(O)c1C/C=C(\C)CCC(=O)O)C(=O)OC2 [Mycophenolic (Mycophenolate), Mycophenolic]
62.1

# return recorded viability at 10 µM for entry CCc1cc2c(cc1CC)CC(NC[C@H](O)c1ccc(O)c3[nH]c(=O)ccc13)C2 [Indacaterol Maleate]
84.4

# return recorded viability at 10 µM for entry CC[C@@H]([C@H](C)O)n1ncn(-c2ccc(N3CCN(c4ccc(OC[C@@H]5CO[C@@](Cn6cncn6)(c6ccc(F)cc6F)C5)cc4)CC3)cc2)c1=O
57.8

# return recorded viability at 10 µM for entry CN(C)CCC=C1c2ccccc2CCc2ccccc21 [Amitriptyline HCl]
106

# return recorded viability at 10 µM for entry CC(C)/N=c1\cc2n(-c3ccc(Cl)cc3)c3ccccc3nc-2cc1Nc1ccc(Cl)cc1
90.4

###

For each of the molecules below, state its viability at 10 µM.
System: HL-60 (Acute Promyelocytic Leukemia)
Experiment: Cell viability analysis, leukemia HL-60
Type: cell-based, human
Conditions: Homo sapiens, HL-60, 72 h, drug 10 μM, 72 hours, WST-1, OD450 nm; read-out: cell viability (survival rate), HL-60
Structures can show the parent of a compound that is named as a salt.
I only need the number, in %, no unit after it.

# return recorded viability at 10 µM for entry CO[C@H]1/C=C/O[C@@]2(C)Oc3c(C)c(O)c4c(O)c(c(/C=N/N5CCN(C)CC5)c(O)c4c3C2=O)NC(=O)/C(C)=C\C=C\[C@H](C)[C@H](O)[C@@H](C)[C@@H](O)[C@@H](C)[C@H](OC(C)=O)[C@@H]1C [Rifampin (Rifadin, Rimactane), Rifampin]
105

# return recorded viability at 10 µM for entry CO/N=C(\C(=O)N[C@@H]1C(=O)N2C(C(=O)OCOC(=O)C(C)(C)C)=C(/C=C\c3scnc3C)CS[C@H]12)c1csc(N)n1 [Cefditoren pivoxil]
110

# return recorded viability at 10 µM for entry COc1cnc(NS(=O)(=O)c2ccc(N)cc2)nc1 [Sulfameter (Bayrena), Sulfameter]
110

# return recorded viability at 10 µM for entry N#CC(c1ccc(Cl)cc1)c1c(Cl)cc(-n2ncc(=O)[nH]c2=O)cc1Cl (centres unmarked) [Diclazuril]
70.2

# return recorded viability at 10 µM for entry CN(CCOc1ccc(CC2SC(=O)NC2=O)cc1)c1ccccn1 (centres unmarked) [Rosiglitazone maleate]
109

# return recorded viability at 10 µM for entry CCCCCCCCCCCCCCCC[N+](C)(C)CCN(Cc1ccc(OC)cc1)c1ncccn1 [Thonzonium Bromide]
35.2

# return recorded viability at 10 µM for entry CN1CCN(c2cc3c(cc2F)c(=O)c(C(=O)O)cn3-c2ccc(F)cc2)CC1 [Difloxacin HCl]
77

# return recorded viability at 10 µM for entry CC(C)(O/N=C(\C(=O)N[C@@H]1C(=O)N2C(C(=O)[O-])=C(C[n+]3ccccc3)CS[C@H]12)c1csc(N)n1)C(=O)O [Ceftazidime Pentahydrate]
89.3

# return recorded viability at 10 µM for entry O=C(C[S+]([O-])Cc1ccco1)NC/C=C\COc1cc(CN2CCCCC2)ccn1 (centres unmarked) [Lafutidine]
95.3

# return recorded viability at 10 µM for entry CCc1oc2ccccc2c1C(=O)c1cc(Br)c(O)c(Br)c1 [Benzbromarone]
85.5

# return recorded viability at 10 µM for entry C[C@H](CCC(=O)O)[C@H]1CC[C@H]2[C@@H]3[C@H](O)C[C@@H]4C[C@H](O)CC[C@]4(C)[C@H]3CC[C@]12C [Chenodeoxycholic acid]
118

# return recorded viability at 10 µM for entry CN(C/C=C/C#CC(C)(C)C)Cc1cccc2ccccc12 [Terbinafine (Lamisil, Terbinex), Terbinafine]
95.2

# return recorded viability at 10 µM for entry CC(C)c1nc(N(C)S(C)(=O)=O)nc(-c2ccc(F)cc2)c1/C=C/[C@@H](O)C[C@@H](O)CC(=O)O [Rosuvastatin calcium (Crestor), Rosuvastatin calcium]
81.7

# return recorded viability at 10 µM for entry COc1c(N2CCNC(C)C2)c(F)cc2c(=O)c(C(=O)O)cn(C3CC3)c12 (centres unmarked) [Gatifloxacin]
100

###

System: HL-60 (Acute Promyelocytic Leukemia)
Assay: Cell viability analysis, leukemia HL-60
Format: cell-based, human
Settings: Homo sapiens, HL-60; drug 10 μM, 72 hours, WST-1, OD450 nm; read-out: cell viability (survival rate), HL-60
QUANTITY NAME: viability at 10 µM (%)
I only need the number, in %, no unit after it.

# return recorded viability at 10 µM for entry COC(=O)C1=CO[C@@H](O[C@@H]2O[C@H](CO)[C@@H](O)[C@H](O)[C@H]2O)[C@@H]2C(CO)=CC[C@H]12 [Geniposide]
120

# return recorded viability at 10 µM for entry Cc1cc(=O)n(-c2ccccc2)n1C [Antipyrine]
102

# return recorded viability at 10 µM for entry CC(C)(C)C(=O)C(Oc1ccc(Cl)cc1)n1ccnc1 (stereo not drawn) [Climbazole]
111

###

System: MDA-MB-231 (Mammary Gland, Adenocarcinoma)
Assay: Cell viability analysis, breast cancer MDA-MB-231
Assay type: cell-based, human
Settings: Homo sapiens, MDA-MB-231, 72 h, read-out: The results of antibiotic drug inhibiting cancer cell lines (cell viability analysis), MDA-MB231
QUANTITY NAME: viability at 10 µM (%)
I only need the number, in %, no unit after it.

# return recorded viability at 10 µM for entry CCC[C@H](NC(=O)[C@@H]1[C@H]2CCC[C@H]2CN1C(=O)[C@@H](NC(=O)[C@@H](NC(=O)c1cnccn1)C1CCCCC1)C(C)(C)C)C(=O)C(=O)NC1CC1
95.6

# return recorded viability at 10 µM for entry N=C(N)c1ccc(OCCCCCOc2ccc(C(=N)N)cc2)cc1
79

# return recorded viability at 10 µM for entry CN(C)c1cc(NC(=O)CNC(C)(C)C)c(O)c2c1C[C@H]1C[C@H]3[C@H](N(C)C)C(O)=C(C(N)=O)C(=O)[C@@]3(O)C(O)=C1C2=O
93.4

# return recorded viability at 10 µM for entry CC[C@H]1OC(=O)[C@H](C)[C@@H](O[C@H]2C[C@@](C)(OC)[C@@H](O)[C@H](C)O2)[C@H](C)[C@@H](O[C@@H]2O[C@H](C)C[C@H](N(C)C)[C@H]2O)[C@](C)(O)C[C@@H](C)CN(C)[C@H](C)[C@@H](O)[C@]1(C)O [Azithromycin Dihydrate]
97.8

# return recorded viability at 10 µM for entry Cc1cc2c(s1)Nc1ccccc1N=C2N1CCN(C)CC1 [Olanzapine (Zyprexa), Olanzapine]
111

# return recorded viability at 10 µM for entry O=c1[nH]c(=O)n([C@H]2C[C@H](O)[C@@H](CO)O2)cc1C(F)(F)F
75.1

# return recorded viability at 10 µM for entry Clc1ccc(COC(Cn2ccnc2)c2ccc(Cl)cc2Cl)c(Cl)c1 (stereo not shown) [Miconazole nitrate]
107

# return recorded viability at 10 µM for entry C=C1[C@H](CO)[C@@H](O)C[C@@H]1n1cnc2c(=O)[nH]c(N)nc21 [Entecavir hydrate]
98.9

# return recorded viability at 10 µM for entry CCCOc1ccc2nc(NC(=O)OC)[nH]c2c1
48.9

# return recorded viability at 10 µM for entry COc1cc(NC(C)CCCN)c2ncccc2c1 (stereo not shown) [Primaquine Diphosphate]
65.4
